Recorded values, source patent US10125134B2.

The reader will find reported pIC50 values listed item by item below.
System: NCI-H358 cells (express KRas G12C), Phospho-ERK
Assay: Cellular inhibition of KRas G12C: Phospho-ERK in NCI-H358 cells
Type: cell-based
Settings: Homo sapiens, NCI-H358, 3 h, pERK(Thr202/Tyr204) normalized with GAPDH; NCI-H358 cells; 3 hours; read-out: IC50
pIC50: −log10 of the molar value. Structures can show the parent of a compound that is named as a salt.

C=CC(=O)N1CCN(c2nc(OCCN3CCCCC3)nc3c2CCN(c2cccc4ccccc24)C3)C[C@@H]1CC#N	6.00 to 10.00
C=CC(=O)N1CCN(c2nc(OCCC(=O)N(C)C)nc3c2CCN(c2cccc4cccc(C)c24)C3)C[C@@H]1CC#N	6.00 to 10.00
CN1CCC[C@H]1COc1nc2c(c(N3CCN(C(=O)/C=C/CN4CCCC4)[C@@H](CC#N)C3)n1)CCN(c1cccc(Cl)c1C(F)(F)F)C2	6.00 to 10.00
C=CC(=O)N1CCN(c2nc(OC[C@@H]3CCN(C)C3)nc3c2CCN(c2cccc4ccccc24)C3)C[C@@H]1CC#N	6.00 to 10.00
CN1CCC[C@H]1COc1nc2c(c(N3CCN(C(=O)/C=C/CN4CCOCC4)[C@@H](CC#N)C3)n1)CCN(c1cccc3cccc(Cl)c13)C2	6.00 to 10.00
C=CC(=O)N1CCN(c2nc(OC[C@H]3C[C@@H](O)CN3C)nc3c2CCN(c2cccc(F)c2C(F)(F)F)C3)CC1CC#N (stereo partly shown)	6.00 to 10.00
C=CC(=O)N1CCN(c2nc(OC[C@@H]3CCCN3C)nc3c2CCN(c2cccc4c(F)cccc24)C3)CC1CC#N (stereo partly shown)	6.00 to 10.00
C=CC(=O)N1CCN(c2nc(OC[C@@H]3CCC(C)(C)N3C)nc3c2CCN(c2cccc4ccccc24)C3)CC1CC#N (stereo partly shown)	6.00 to 10.00
C=CC(=O)N1CCN(c2nc(OC[C@@H]3CCCN3C(C)C)nc3c2CCN(c2cccc4ccccc24)C3)CC1CC#N (stereo partly shown)	6.00 to 10.00
C=CC(=O)N1CCN(c2nc(OCC3CCN(C4CC4)C3)nc3c2CCN(c2cc(O)cc4ccccc24)C3)CC1 (stereo not shown)	6.00 to 10.00

The value of pIC50 measured for the molecule C=CC(=O)N1CCN(c2nc(OCCN3CCCC3)nc3c2CCN(c2cc(O)cc4ccccc24)C3)CC1 turned out to be < 6.00

The value of pIC50 measured for the molecule C=CC(=O)N1CCN(c2nc(OC[C@@H]3CCCN3CCOC)nc3c2CCN(c2cc(O)cc4ccccc24)C3)CC1 turned out to be 6.00 to 10.00

The value of pIC50 measured for the molecule C=CC(=O)N1CCN(c2nc(OCCCN3CCS(=O)(=O)CC3)nc3c2CCN(c2cc(O)cc4ccccc24)C3)CC1 [Example 34, trifluoroacetate] turned out to be < 6.00

====

System: NCI-H358 cells (express KRas G12C), Phospho-ERK
Experiment: Cellular inhibition of KRas G12C: Phospho-ERK in NCI-H358 cells
Format: cell-based
Details: pERK(Thr202/Tyr204) normalized with GAPDH; NCI-H358 cells; 3 hours; read-out: IC50
Measured endpoint: IC50

C=CC(=O)N1CCN(c2nc(OC[C@@H]3CCCN3C)nc3c2CCN(c2cccc4ccc(Cl)cc24)C3)CC1CC#N (stereo partly shown) [Example 286]	0.1 to 1000 nM
C=CC(=O)N1CCN(c2nc(OCCN(CC)CC)nc3c2CCN(c2ccccc2C(F)(F)F)C3)CC1CC#N (stereo not shown) [Example 300]	0.1 to 1000 nM
C=CC(=O)N1CCN(c2nc(OC[C@@H]3CCCN3C)nc3c2CCN(c2ccccc2C(F)(F)F)C3)C[C@@H]1CC#N [Example 379]	0.1 to 1000 nM

Param item: C=CC(=O)N1CCN(c2nc(OC[C@@H]3CCCN3C)nc3c2CCN(c2ccnc4ccccc24)C3)CC1CC#N (stereo partly shown) [Example 278] ; param system: NCI-H358 cells (express KRas G12C), Phospho-ERK; output IC50: 0.1 to 1000 nM

Param item: C=CC(=O)N1CCN(c2nc(OC[C@@H]3CCCN3C)nc3c2CCN(c2cccc4cc(F)ccc24)C3)CC1CC#N (stereo partly shown) [Example 290] ; param system: NCI-H358 cells (express KRas G12C), Phospho-ERK; output IC50: 0.1 to 1000 nM

Param item: C=CC(=O)N1CCN(c2nc(OC[C@@H]3CCCN3CCOC)nc3c2CCN(c2cccc4ccccc24)C3)CC1CC#N (stereo partly shown) [Example 380] ; param system: NCI-H358 cells (express KRas G12C), Phospho-ERK; output IC50: 0.1 to 1000 nM

Param item: C=CC(=O)N1CCN(c2nc(OC[C@@H]3CN(C)CCO3)nc3c2CCN(c2cccc4ccccc24)C3)CC1CC#N (stereo partly shown) [Example 442] ; param system: NCI-H358 cells (express KRas G12C), Phospho-ERK; output IC50: 0.1 to 1000 nM

Param item: C=CC(=O)N1CCN(c2nc(OC[C@@H]3CCCN3C)nc3c2CCN(c2cccc(C)c2C(F)(F)F)C3)C[C@@H]1CC#N [Example 392] ; param system: NCI-H358 cells (express KRas G12C), Phospho-ERK; output IC50: 0.1 to 1000 nM
